# method_notes: Selectivity index, ratio of IC50 for human THP1 cells to IC50 for promastigotes of Leishmania donovani HOM/IN/01/2001
# Format: toxicity, cell-based, THP-1
# condition_summary: read-out: Selectivity Index
Please respond with class 1 when measured selectivity ratio is strictly beneath 2, and with class 0 in all other cases.

{"columns": ["compound", "discrete_label"],
 "data": [
  ["CC1(Cc2ccccc2)CC(S(=O)(=O)c2ccc(Nc3cccc(/C(N)=N/O)c3)cc2)=C(c2ccc(/C(N)=N/O)cc2)O1 (stereo unspecified)", "class 1"],
  ["CC1(Cc2ccccc2)CC(S(=O)(=O)c2ccc(/C(N)=N/O)cc2)=C(c2ccc(Nc3cccc(/C(N)=N/O)c3)cc2)O1 (stereo unspecified)", "class 1"],
  ["N/C(=N\\O)c1ccc(S(=O)(=O)C2=C(c3ccccc3)OC(c3ccccc3)(c3ccccc3)C2)cc1", "class 0"],
  ["CC1(Cc2ccccc2)CC(S(=O)(=O)c2ccc(/C(N)=N/O)cc2)=C(c2ccc(/C(N)=N/O)cc2)O1 (stereo unspecified)", "class 1"],
  ["CC1(Cc2ccccc2)CC(S(=O)(=O)c2ccc(/C(N)=N/O)cc2)=C(c2ccc(Nc3ccc(/C(N)=N/O)cc3)cc2)O1 (stereo unspecified)", "class 1"],
  ["CC1(Cc2ccccc2)CC(S(=O)(=O)c2ccc(Nc3ccc(/C(N)=N/O)cc3)cc2)=C(c2ccc(/C(N)=N/O)cc2)O1 (stereo unspecified)", "class 1"],
  ["N/C(=N\\O)c1ccc(Nc2ccc(C3=C(S(=O)(=O)c4ccc(/C(N)=N/O)cc4)CC(c4ccccc4)(c4ccccc4)O3)cc2)cc1", "class 1"],
  ["N/C(=N\\O)c1ccc(S(=O)(=O)C2=C(c3ccc(Nc4ccccc4/C(N)=N/O)cc3)OC(c3ccccc3)(c3ccccc3)C2)cc1", "class 0"],
  ["N/C(=N\\O)c1ccc(/C=C/c2ccc(C3=C(S(=O)(=O)c4ccc(/C(N)=N/O)cc4)CC(c4ccccc4)(c4ccccc4)O3)cc2)cc1", "class 1"],
  ["N=C(N)c1ccc(OCCCCCOc2ccc(C(=N)N)cc2)cc1", "class 0"],
  ["CC1(Cc2ccccc2)CC(S(=O)(=O)c2ccc(/C(N)=N/O)cc2)=C(c2ccccc2)O1 (stereo unspecified)", "class 0"],
  ["N/C(=N\\O)c1ccc(C2=C(S(=O)(=O)c3ccc(/C(N)=N/O)cc3)CC(c3ccccc3)(c3ccccc3)O2)cc1", "class 1"],
  ["N/C(=N\\O)c1ccc(C2=C(S(=O)(=O)c3ccccc3)CC(c3ccccc3)(c3ccccc3)O2)cc1", "class 1"],
  ["CC1(Cc2ccccc2)CC(S(=O)(=O)c2ccccc2)=C(c2ccc(/C(N)=N/O)cc2)O1 (stereo unspecified)", "class 0"],
  ["CC1(Cc2ccccc2)CC(S(=O)(=O)c2ccc(/C(N)=N/O)cc2)=C(c2ccc(Nc3ccccc3/C(N)=N/O)cc2)O1 (stereo unspecified)", "class 0"],
  ["N/C(=N\\O)c1ccc(S(=O)(=O)C2=C(c3ccc(Nc4cccc(/C(N)=N/O)c4)cc3)OC(c3ccccc3)(c3ccccc3)C2)cc1", "class 1"],
  ["CC1(Cc2ccccc2)CC(S(=O)(=O)c2ccc(Nc3ccccc3/C(N)=N/O)cc2)=C(c2ccc(/C(N)=N/O)cc2)O1 (stereo unspecified)", "class 1"],
  ["CC1(Cc2ccccc2)CC(S(=O)(=O)c2ccc(/C(N)=N/O)cc2)=C(c2ccc(/C=C/c3ccc(/C(N)=N/O)cc3)cc2)O1 (stereo unspecified)", "class 1"]
]}

====

# method_notes: Selectivity index, ratio of IC50 for human THP1 cells to IC50 for promastigotes of Leishmania donovani HOM/IN/01/2001
# Type: toxicity, cell-based, THP-1
# condition_summary: read-out: Selectivity Index
The compounds listed here are annotated with their selectivity ratio.
value_type: selectivity ratio

{"columns": ["smiles_notation", "result"],
 "data": [
  ["N/C(=N\\O)c1ccc(Nc2ccc(S(=O)(=O)C3=C(c4ccc(/C(N)=N/O)cc4)OC(c4ccccc4)(c4ccccc4)C3)cc2)cc1", "> 1.3"],
  ["N/C(=N\\O)c1ccc(/C=C/c2ccc(S(=O)(=O)C3=C(c4ccc(/C(N)=N/O)cc4)OC(c4ccccc4)(c4ccccc4)C3)cc2)cc1", "> 0.2"],
  ["N/C(=N\\O)c1ccc(C2=C(S(=O)(=O)c3ccc(Nc4ccccc4/C(N)=N/O)cc3)CC(c3ccccc3)(c3ccccc3)O2)cc1", "> 1.3"]
]}
